measured-target: Cytochrome P450 2C9 (Homo sapiens)
Sequence (P11712 whole entry): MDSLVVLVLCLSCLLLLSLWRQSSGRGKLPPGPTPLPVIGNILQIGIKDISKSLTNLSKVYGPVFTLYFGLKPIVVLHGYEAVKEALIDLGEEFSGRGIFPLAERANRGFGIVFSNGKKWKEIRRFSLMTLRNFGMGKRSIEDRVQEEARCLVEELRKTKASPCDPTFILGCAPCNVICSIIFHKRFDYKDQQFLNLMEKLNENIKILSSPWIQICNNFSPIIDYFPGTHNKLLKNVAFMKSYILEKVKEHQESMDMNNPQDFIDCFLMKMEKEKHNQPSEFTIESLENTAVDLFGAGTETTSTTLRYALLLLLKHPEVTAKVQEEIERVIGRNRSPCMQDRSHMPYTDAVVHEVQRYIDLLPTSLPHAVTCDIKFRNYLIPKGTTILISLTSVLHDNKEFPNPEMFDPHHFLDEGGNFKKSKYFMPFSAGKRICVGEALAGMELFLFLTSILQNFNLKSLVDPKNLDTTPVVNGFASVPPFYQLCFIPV
test-readout: pIC50
// pIC50 here means minus log10 of the molar concentration (mol/L)

# pIC50 lookup, item `Cc1ccc2c(N3CCN(CCc4ccc(F)cc4)CC3)cccc2n1`
4.50

Try this compound next: `Cc1c(-c2cccs2)nc2ccccc2c1C(=O)N[C@@H](C)C1CCCCC1`
4.70

Try this compound next: `O=C(N[C@@H](c1cccc(F)c1)C1CC1)c1c(Cc2cncnc2)c(-c2ccccc2)nc2ccccc12`
5.00

Try this compound next: `Cc1ccc2c(N3CCN(CCc4ccccc4)CC3)cccc2n1`
4.40

Try this compound next: `O=C(Cn1c(CCc2cccc(F)c2F)nc(=O)c2ccccc21)N(Cc1ccc(-c2ccc(C(F)(F)F)cc2)cc1)C1CCNCC1`
4.80

Try this compound next: `Cc1c(-c2ccccc2)nc2ccccc2c1C(=O)N[C@@H](c1cccc(F)c1)C1CC1`
5.10
